Each entry below carries its reported P.E. binding ELISA OD.
Experimental system: T1, human IL-2Rβ (human, UniProt P14784 27-240, limits assumed)
T1 construct: recombinant protein, coated or immobilised; also called hu IL-2R; IL-2R beta
T1 sequence: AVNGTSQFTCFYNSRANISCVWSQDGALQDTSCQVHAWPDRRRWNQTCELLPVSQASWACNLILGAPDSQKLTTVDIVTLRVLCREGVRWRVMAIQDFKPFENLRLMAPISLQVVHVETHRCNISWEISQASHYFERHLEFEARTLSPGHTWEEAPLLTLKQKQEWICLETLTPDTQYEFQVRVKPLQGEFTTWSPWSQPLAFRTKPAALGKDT
Experiment: P.E. ELISA, coated protein
The response must be a number in OD450 nm with no trailing unit.

FJ1427 P035MP02E11 (VHH, soluble VHH in periplasmic extract; also called clone nr) VHH: QVQLQESGGGLVQAGGSLRLSCAASGRTFSNYVMAWFRQAPGKEREFVGAITQTGRGTFYADSVEGRFTISRINDKNTVYLQMNSLKPEDTAVYYCSAPRSGRAGTRNQMDYEYWGQGTQVTVSS :: 0.529
FJ1427_P035MP06F03 (VHH, soluble VHH in periplasmic extract; also called 23-MP06F03; clone nr; 502) VHH: QVQLVESGGGLVQAGGSLRLSCAVSGDVFVRYTMAWFRQAPGKEREFVASVTDSGRTTDYVHSVKGRFTVSRDNAKNTVYLQMNNLKPEDTAVYYCAANTDYFQIKSLDANTWGQGTQVTVSS :: 0.54
FJ1427_P035MP02E05 (VHH, soluble VHH in periplasmic extract; also called clone nr) VHH: EVQLVESGGGLVQIGGSLRLSCAASGRTFSSITMAYFRQVPGKEHEWVAGINFSGTRTFYADSVKGRFLISRDDAKSTMYLQMNSLKPEDTAVYYCAASPRGFYGPGNALYDYWGQGTQVTVSS :: 0.856

Okay, next one:
Name the recorded P.E. binding ELISA OD for FJ1427_P035MP02C02 (VHH, soluble VHH in periplasmic extract; also called clone nr) VHH: QVQLVESGGGLVQPGGSLRLSCAASGSRFVSDFMGWYRQVPGKQRELVADMADGGSARYGDSVKGRFTILRDNMNSTAFLQMSSLKPEDTGVYYCKAGLWIAGRHFDYWGQGTQVTVSS . 0.401
